Data origin, for the record: PubChem BioAssay (NCI)

# Tested on: SK-MEL-28 melanoma
# test.method.notes: NCI-60 one-dose screen, 48 h
# run.conditions: 10 µM unless noted
This is part of a sample that, as a whole, favours compounds with a hit. Of some 83,000 tested, about 20% had one in any assay. Active and inactive are the calls of the source. The calls were made as follows: active = growth percent below 10; inactive = the rest.
Give your call using only these classes: true for active, false for inactive

Completed entries (count: 3):
> print(dat)
                                   compound  group.label
1  CN1CCN(CCOc2ccc(-c3cnc4c(-c5cccc(F)c5)cnn4c3)cc2)CC1        false
2  CC1(C)C(=O)/C(=C\c2ccccn2)C[C@]2(C)[C@H]3CC[C@@H]4[C@@H](C(=O)/C=C/c5ccccn5)CC[C@@]4(C)[C@]3(C)CC[C@@H]12         true
3  COc1ccc(-c2nc3c(c(C)nn3-c3ccc(F)cc3)c(=O)[nH]2)cc1        false

Input: Please share the test call associated with Brc1ccc2c(c1)c(-c1nc(-c3c[nH]c4ncccc34)cs1)cn2CCCN1CCCCC1 .
Output: true

Input: State the result this test recorded for Cc1ccc(C)c2c1CCC2C(C)C (stereo not given) .
Output: false

Input: Look up the recorded call for NNC(=O)c1nc2ccccc2[nH]1 in this test.
Output: false

Input: In this assay, the call recorded for COc1ccc(C(=O)c2ccc(C)cc2)c(OC)c1OC was what?
Output: false

Input: Which outcome was assigned to CCC(c1ccc(OC)cc1)C(CC)c1ccc(O)c(CN2CCCCC2)c1 (stereo not given) in this test?
Output: false
